biological target: Cannabinoid receptor 2 (Homo sapiens); assay: Displacement of [3H]CP-55940 from recombinant human CB2 receptor expressed in CHO cell
Sequence (P34972 whole entry): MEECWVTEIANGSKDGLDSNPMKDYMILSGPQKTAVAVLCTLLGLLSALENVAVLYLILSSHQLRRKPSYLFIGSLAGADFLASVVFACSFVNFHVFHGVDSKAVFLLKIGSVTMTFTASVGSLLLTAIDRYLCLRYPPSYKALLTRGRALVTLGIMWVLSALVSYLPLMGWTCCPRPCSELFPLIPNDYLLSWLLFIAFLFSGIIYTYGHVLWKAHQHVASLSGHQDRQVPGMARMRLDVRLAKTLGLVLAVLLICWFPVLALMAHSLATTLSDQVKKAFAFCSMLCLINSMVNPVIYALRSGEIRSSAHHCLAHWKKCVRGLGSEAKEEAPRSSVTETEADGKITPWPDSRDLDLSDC
pIC50: −log10 of the molar value.
Outcome Measure: pIC50

Here is how some compounds turned out for pIC50.
# Compound Structure String, Assay Target, pIC50
measured = [
    ("C[C@H](NC(C)(C)C(=O)Nc1ccc(C(F)(F)F)cn1)[C@@H](Cc1ccc(Cl)cc1)c1cccc(C#N)c1", "Cannabinoid receptor 2 (Homo sapiens)", 5.76),
    ("C[C@H](NC(=O)C(C)(C)Nc1ccccn1)[C@@H](Cc1ccc(Cl)cc1)c1cccc(C#N)c1", "Cannabinoid receptor 2 (Homo sapiens)", 5.74),
    ("C[C@H](NC(=O)C(C)(C)Nc1ccc(C(F)(F)F)cn1)[C@@H](Cc1ccc(Cl)cc1)c1cccc(C#N)c1", "Cannabinoid receptor 2 (Homo sapiens)", 6.49),
]

a. Cc1cc(NC(C)(C)C(=O)N[C@@H](C)[C@@H](Cc2ccc(Cl)cc2)c2cccc(C#N)c2)on1
b. C[C@H](NC(=O)C(C)(C)Nc1ccncn1)[C@@H](Cc1ccc(Cl)cc1)c1cccc(C#N)c1
c. C[C@H](NC(=O)C(C)(C)Nc1cc(C(F)(F)F)ccn1)[C@@H](Cc1ccc(Cl)cc1)c1cccc(C#N)c1
d. C[C@H](NC(=O)C(C)(C)Nc1ncc(Cl)cc1Cl)[C@@H](Cc1ccc(Cl)cc1)c1cccc(C#N)c1
e. C[C@H](NC(=O)C(C)(C)NCCCN(C)C)[C@@H](Cc1ccc(Cl)cc1)c1cccc(C#N)c1
Q. Arrange the 5 compounds by rising pIC50, starting with the smallest. Put the labels in the order asked and list them.
A. e, b, a, d, c
(e: 4.59, b: 4.85, a: 5.41, d: 6.16, c: 6.45)

---

species on record: Homo sapiens; assay: Selectivity ratio of IC50 of human recombinant CB2 receptor to IC50 of human recombinant CB1 receptor
Outcome Measure: Ratio IC50

Here is how some molecules turned out for Ratio IC50.
# Compound Structure String, Endpoint Value
measured = [
    ("C[C@H](NC(=O)C(C)(C)NCCCN(C)C)[C@@H](Cc1ccc(Cl)cc1)c1cccc(C#N)c1", 8.7),
    ("C[C@H](NC(C)(C)C(=O)Nc1cc(-c2ccccc2)on1)[C@@H](Cc1ccc(Cl)cc1)c1cccc(C#N)c1", 17),
    ("C[C@H](NC(=O)C(C)(C)Nc1ccncn1)[C@@H](Cc1ccc(Cl)cc1)c1cccc(C#N)c1", 286),
    ("C[C@H](NC(=O)C(C)(C)Nc1cc(C(F)(F)F)ccn1)[C@@H](Cc1ccc(Cl)cc1)c1cccc(C#N)c1", 221),
    ("C[C@H](NC(=O)C(C)(C)Nc1nc2ccccc2n1C)[C@@H](Cc1ccc(Cl)cc1)c1cccc(C#N)c1", 15),
]

I. C[C@H](NC(=O)C(C)(C)Nc1ccccn1)[C@@H](Cc1ccc(Cl)cc1)c1cccc(C#N)c1
II. Cc1cc(NC(C)(C)C(=O)N[C@@H](C)[C@@H](Cc2ccc(Cl)cc2)c2cccc(C#N)c2)on1
Q. Looking at I and II , which one comes out lower in Ratio IC50 terms? Record your answer as the label of the chosen record.
A. I

---

target: Cannabinoid receptor 1 (Homo sapiens, UniProt P21554); experiment: Displacement of [3H]CP-55940 from recombinant human CB1 receptor expressed in CHO cells
Sequence (P21554 whole entry): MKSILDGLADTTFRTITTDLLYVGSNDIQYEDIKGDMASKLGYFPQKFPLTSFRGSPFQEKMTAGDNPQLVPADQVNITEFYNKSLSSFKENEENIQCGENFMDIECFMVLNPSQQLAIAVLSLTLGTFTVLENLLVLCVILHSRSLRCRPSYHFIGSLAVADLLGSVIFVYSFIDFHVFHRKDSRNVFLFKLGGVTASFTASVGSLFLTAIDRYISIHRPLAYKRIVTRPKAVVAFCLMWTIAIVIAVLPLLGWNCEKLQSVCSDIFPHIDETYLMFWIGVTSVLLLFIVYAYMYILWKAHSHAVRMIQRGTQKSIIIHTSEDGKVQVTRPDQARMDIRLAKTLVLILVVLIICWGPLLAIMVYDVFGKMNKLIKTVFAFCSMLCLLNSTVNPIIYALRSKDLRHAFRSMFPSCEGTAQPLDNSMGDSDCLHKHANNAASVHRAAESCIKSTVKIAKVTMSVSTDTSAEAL
pIC50: −log10 of the molar value.
Outcome Measure: pIC50

A. C[C@H](NC(=O)C(C)(C)NCCCN(C)C)[C@@H](Cc1ccc(Cl)cc1)c1cccc(C#N)c1
B. C[C@H](NC(=O)C(C)(C)Nc1cc(C(F)(F)F)ccn1)[C@@H](Cc1ccc(Cl)cc1)c1cccc(C#N)c1
C. C[C@H](NC(=O)C(C)(C)Nc1ccc(C(F)(F)F)cn1)[C@@H](Cc1ccc(Cl)cc1)c1cccc(C#N)c1
Q. Rank the listed compounds according to pIC50, from the largest value downward. Put the labels in the order asked and list them.
A. B, C, A

---

biological target: Cytochrome P450 3A4 (Homo sapiens, UniProt P08684)
Sequence (P08684 whole entry): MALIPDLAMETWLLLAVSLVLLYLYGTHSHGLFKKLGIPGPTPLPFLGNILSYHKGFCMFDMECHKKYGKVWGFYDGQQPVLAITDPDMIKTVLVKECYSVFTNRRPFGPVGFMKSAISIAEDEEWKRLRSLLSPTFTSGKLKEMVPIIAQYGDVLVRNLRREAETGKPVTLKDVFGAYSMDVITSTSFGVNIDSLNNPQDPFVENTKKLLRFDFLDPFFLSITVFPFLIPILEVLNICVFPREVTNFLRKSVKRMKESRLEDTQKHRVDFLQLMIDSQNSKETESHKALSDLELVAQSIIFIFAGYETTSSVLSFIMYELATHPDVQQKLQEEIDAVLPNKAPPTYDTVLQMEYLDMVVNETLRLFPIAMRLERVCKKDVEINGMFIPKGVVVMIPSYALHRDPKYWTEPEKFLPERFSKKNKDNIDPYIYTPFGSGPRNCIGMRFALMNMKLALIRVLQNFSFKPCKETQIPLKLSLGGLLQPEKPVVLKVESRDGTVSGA
Outcome Measure: pIC50
Here pIC50 is given on a logarithmic scale as minus log10 of the concentration in mol/L.

Q. // pIC50 lookup, key: C[C@H](NC(=O)C(C)(C)Nc1ccc(C(F)(F)F)cn1)[C@@H](Cc1ccc(Cl)cc1)c1cccc(C#N)c1
A. 5.69

---

biological target: Cannabinoid receptor 1 (Homo sapiens); test: Inverse agonist activity at human CB1 receptor assessed as forskolin-induced cAMP level by adenylyl cyclase activation flash plate assay
pEC50: −log10 of the molar value.
Outcome Measure: pEC50

Here is how some molecules turned out for pEC50.
# Compound Structure String, Assay Target, pEC50
records = [
    ("C[C@H](NC(=O)C(C)(C)Nc1cc2ccccc2cn1)[C@@H](Cc1ccc(Cl)cc1)c1cccc(C#N)c1", "Cannabinoid receptor 1 (Homo sapiens)", 8.72),
    ("C[C@H](NC(=O)C(C)(C)Nc1cc(C(C)(C)C)on1)[C@@H](Cc1ccc(Cl)cc1)c1cccc(C#N)c1", "Cannabinoid receptor 1 (Homo sapiens)", 8.46),
]

P. C[C@H](NC(=O)C(C)(C)Nc1ccc(C(F)(F)F)cn1)[C@@H](Cc1ccc(Cl)cc1)c1cccc(C#N)c1
Q. C[C@H](NC(=O)C(C)(C)Nc1cc(C(F)(F)F)ccn1)[C@@H](Cc1ccc(Cl)cc1)c1cccc(C#N)c1
Q. Looking at P and Q , which one comes out lower in pEC50 terms? Record your answer as the label of the chosen record.
A. P

---

organism: Homo sapiens; experiment: Selectivity ratio of IC50 of human recombinant CB2 receptor to IC50 of human recombinant CB1 receptor
Outcome Measure: Ratio IC50

# Compound Structure String, Ratio IC50
data = [
    ("Cc1ccnc(NC(C)(C)C(=O)N[C@@H](C)[C@@H](Cc2ccc(Cl)cc2)c2cccc(C#N)c2)c1", 15),
]

P. Cc1cc(NC(C)(C)C(=O)N[C@@H](C)[C@@H](Cc2ccc(Cl)cc2)c2cccc(C#N)c2)n[nH]1
Q. C[C@H](NC(=O)C(C)(C)Nc1ccc(C(F)(F)F)cn1)[C@@H](Cc1ccc(Cl)cc1)c1cccc(C#N)c1
Q. Hi there! Just curious which has the higher Ratio IC50 between P and Q . Record your answer as the label of the chosen record.
A. Q
